# TARGET_DESC: Steroidogenic factor 1 (Homo sapiens)
# MEASUREMENT_PROTOCOL: SF1 (NR5A1) inverse agonists, counter-screen for LRH-1 inverse agonist project, cell-based, luminescence, high throughput (AID 651614);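 also: cells cotransfected with StAR promoter reporter and SF1 expression vector; 0% = vehicle on cells with receptor and 100% = vehicle on cells lacking receptor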
# TEST_PARAMETERS: cell-based SF1 luciferase reporter, at 3.6 µM, active compounds read high
OUTCOME_MEASURE: inhibition (%)

# MOLECULE, QUANTITATIVE_RESULT
rows = [
    ("Cc1ccc(N(CCC#N)C(=O)CCl)cc1C", 49.2),
    ("CCn1nnnc1SCC(=O)N(C)C1CCS(=O)(=O)C1 (stereo not drawn)", 48.1),
    ("CCOc1ccc(CCNC(=O)COC(=O)c2cc(=O)[nH]c3ccccc23)cc1OCC", 53.2),
    ("CCOC(=O)c1ccc(Nc2nc(-c3cccnc3)nc3ccccc23)cc1", 41.1),
    ("Cc1cccc(OCC(=O)Nc2ccncc2)c1C", 61.9),
    ("O=C(Nc1nc(-c2ccccc2)cs1)c1ccccc1NS(=O)(=O)c1ccc(F)cc1", 87.5),
    ("CCOc1cc(/C=N/Nc2nnc(C)n2N)ccc1O", 22.2),
    ("O=C(N/N=C/c1c(O)ccc2ccccc12)c1[nH]ncc1Br", 83.8),
    ("Cc1cc(C)cc(NC(=O)c2ccc([N+](=O)[O-])o2)c1", 74.7),
    ("Cc1ccc(NC(=O)c2cc(C)n(-c3ccccc3)c2C)cc1", 20.4),
    ("CCCNC1=C(N(C(C)=O)c2cccc(F)c2)C(=O)c2ccccc2C1=O", 88),
    ("Cc1cc(C)nc(NC(=O)c2ccc(COc3ccccc3Cl)cc2)c1", 67.1),
    ("COc1cccc(C(=O)COc2cccc(NC(=O)c3cccc([N+](=O)[O-])c3)c2)c1", 59.3),
    ("O=C(Nc1cccc(S(=O)(=O)Nc2ccc(Cl)cc2)c1)c1ccc(Cl)nc1", 63.3),
    ("CC(=O)c1c(C)[nH]c(C(=O)OCC(=O)Nc2cccc(S(=O)(=O)N3CCCC3)c2)c1C", 48.9),
    ("Cc1onc(-c2ccccc2Cl)c1-c1nc(-c2ccccn2)no1", 52.7),
    ("Cc1[nH]c2ccccc2c1/C=N/Nc1ccc([N+](=O)[O-])cc1", 56.5),
    ("OCCCNc1c2ccccc2nc2ccccc12", 56.7),
    ("COc1ccccc1C(=O)Nc1nc2ccccc2[nH]1", 83.8),
    ("CCN(CC)c1ccc(C(=C2C=CC(=[N+](CC)CC)C=C2)c2ccccc2)cc1", 99.1),
    ("Cc1ccc(S(=O)(=O)N2CCc3ccccc3CC2)cc1", 56.7),
    ("CCCCCc1ccc(OCCCC[n+]2ccc(C)cc2)c(CCCCC)c1", 45.7),
    ("Cc1cc2ncn(/N=C/c3ccc([N+](=O)[O-])o3)c2cc1C", 68.2),
]

----------
This section presents molecules with their documented inhibition values.
# TARGET_DESC: Nuclear receptor coactivator 1 (Homo sapiens) (UniProt Q15788)
# Sequence (Q15788 whole entry, looked up): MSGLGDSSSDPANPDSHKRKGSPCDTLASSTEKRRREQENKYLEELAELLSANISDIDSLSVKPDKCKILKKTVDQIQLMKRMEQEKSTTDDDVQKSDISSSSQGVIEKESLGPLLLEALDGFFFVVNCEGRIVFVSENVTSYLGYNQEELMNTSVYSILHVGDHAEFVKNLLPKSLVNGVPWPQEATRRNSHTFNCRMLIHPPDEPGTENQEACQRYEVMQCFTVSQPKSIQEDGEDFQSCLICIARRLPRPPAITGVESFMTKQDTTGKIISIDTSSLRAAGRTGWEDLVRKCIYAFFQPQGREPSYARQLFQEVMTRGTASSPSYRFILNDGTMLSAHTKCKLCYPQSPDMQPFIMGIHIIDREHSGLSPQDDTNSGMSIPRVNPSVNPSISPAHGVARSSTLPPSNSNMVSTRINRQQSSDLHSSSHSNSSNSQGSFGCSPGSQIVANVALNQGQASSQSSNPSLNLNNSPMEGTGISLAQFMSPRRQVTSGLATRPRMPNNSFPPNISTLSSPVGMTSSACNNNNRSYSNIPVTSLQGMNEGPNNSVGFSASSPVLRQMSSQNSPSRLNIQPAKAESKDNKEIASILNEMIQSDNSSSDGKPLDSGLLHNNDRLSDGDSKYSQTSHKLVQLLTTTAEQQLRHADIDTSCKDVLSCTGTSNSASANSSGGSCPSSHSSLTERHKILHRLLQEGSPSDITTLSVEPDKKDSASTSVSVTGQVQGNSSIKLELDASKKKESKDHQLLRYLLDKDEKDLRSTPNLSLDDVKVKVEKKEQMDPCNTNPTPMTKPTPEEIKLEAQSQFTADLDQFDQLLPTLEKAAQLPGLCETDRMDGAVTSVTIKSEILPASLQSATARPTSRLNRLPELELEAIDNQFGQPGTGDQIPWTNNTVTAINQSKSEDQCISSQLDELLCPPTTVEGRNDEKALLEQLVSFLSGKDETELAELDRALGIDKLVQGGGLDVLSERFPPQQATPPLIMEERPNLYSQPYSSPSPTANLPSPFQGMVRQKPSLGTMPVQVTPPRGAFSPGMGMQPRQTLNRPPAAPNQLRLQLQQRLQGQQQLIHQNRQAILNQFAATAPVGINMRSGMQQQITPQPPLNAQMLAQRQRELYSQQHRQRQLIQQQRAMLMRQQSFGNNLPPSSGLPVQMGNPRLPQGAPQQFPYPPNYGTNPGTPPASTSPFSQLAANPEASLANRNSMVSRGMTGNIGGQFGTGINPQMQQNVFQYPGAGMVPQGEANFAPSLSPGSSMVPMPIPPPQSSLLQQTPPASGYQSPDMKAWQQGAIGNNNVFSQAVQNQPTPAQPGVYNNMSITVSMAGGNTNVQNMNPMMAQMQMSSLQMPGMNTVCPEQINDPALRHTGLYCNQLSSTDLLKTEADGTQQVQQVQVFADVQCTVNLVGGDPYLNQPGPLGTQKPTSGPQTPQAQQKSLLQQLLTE
# MEASUREMENT_PROTOCOL: SRC1 coactivator transcriptional activity inhibitors, confirmation, cell-based, luminescence, quadruplicate (AID 588820);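 also: 0% = DMSO wells and 100% = gossypol 36 µM treated wells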
# TEST_PARAMETERS: HEK293 GAL4-SRC1 luciferase reporter, at 3.6 µM, active compounds read high

# MOLECULE, inhibition (%)
rows = [
    ("O=C(CCl)N(C1CCCC1)C1CCS(=O)(=O)C1 (stereo not given)", 58.3),
    ("O=C(Nc1nc(-c2ccccn2)cs1)c1cccc(S(=O)(=O)N2CCOCC2)c1", 25),
    ("CC(Oc1ccc(F)cc1)C(=O)Nc1cc(S(=O)(=O)N2CCCCC2)ccc1N1CCOCC1 (stereo not given)", -3.38),
    ("COc1cccc(/C=N/NC(=O)c2cc3c(OC)ccc(OC)c3[nH]2)c1O", 28.5),
    ("COC(=O)C(C)Sc1nc(NCc2ccccc2)nc(N(C)C)n1 (stereo not given)", -11.2),
    ("COc1ccc([C@@]23Oc4cc(OC)cc(OC)c4[C@]2(O)[C@H](O)[C@H](C(=O)N(C)C)[C@H]3c2ccccc2)cc1", 85.6),
    ("CC(C)CCCCCCCCCCCCC(=O)NCC(=O)NC1C(O)C(O)C(Nc2ncnc3nc[nH]c23)OC1C(O)CO (stereo not given)", 94.2),
    ("O=C(c1ccncc1)N(Cc1cc2ccccc2[nH]c1=O)C1CCCCC1", 42.2),
    ("COc1ccc(-c2cn[nH]c2-c2ccc(O)cc2O)cc1", 53.9),
    ("CCC(=O)Nc1cccc(C(=O)/C=C/c2cc(Br)ccc2OC)c1", 60.6),
]
